Target: GLP-1 receptor (UniProt P43220 24-463, limits assumed)
Assay: cell-based or functional assay
Numbered stars: 1 amine (or outer) side, 2 acyl side, 3 side chain; on linkers, the order of the positions; unused ones are H or OH. Bridge positions count the residues as written; N and C are the ends. Square brackets hold non-standard residues; d marks the D form. Side chains are listed from the residue outwards. Ends that are not written are not given here. * marks the point of attachment. γGlu = O=C(O)[C@H](CCC(=O)[*:2])N[*:1]; Palmitoyl = CCCCCCCCCCCCCCCC(=O)*; DMIA = not defined here; Aib = CC(C)(N)C(=O)O
A collection of binders and their measured in vitro activity EC50
Only the number, expressed in pM, is required.

Name the reported in vitro activity EC50 value associated with the binder XSQGTFTSDYSKYLDERRAKDFVQWLMNK (DMIA at position 1; E16/K20 lactam; C16 fatty acyl on Lys29 via γ-Glu-γ-Glu spacer) [DMIA1, E16/K20 lactam, Lys29 γE-γE-C16 (SEQ ID NO: 654)]
70

Name the reported in vitro activity EC50 value associated with the binder [DMIA]SQGTFTSDK([γGlu-Palmitoyl])SKYLDERRAKDFVQWLMNT (lactam 16-20; reading uncertain) [DMIA1, E16/K20 lactam, Lys10 γE-C16 (SEQ ID NO: 651)]
6

Name the reported in vitro activity EC50 value associated with the binder H[Aib]EGTFTSDK([γGlu-γGlu-Palmitoyl])SKYLDEQAAKEFIAWLMNT [Chi-2, AIB2, E3, Lys10 γE-γE-C16 (SEQ ID NO: 648)]
4

Name the reported in vitro activity EC50 value associated with the binder [DMIA]SQGTFTSDK([γGlu-γGlu-Palmitoyl])SKYLDERRAKDFVQWLMNT (lactam 16-20; reading uncertain) [DMIA1, E16/K20 lactam, Lys10 γE-γE-C16 (SEQ ID NO: 652)]
4

Continuing:
Name the reported in vitro activity EC50 value associated with the binder H[Aib]QGTFTSDK([γGlu-Palmitoyl])SKYLD[Aib]RAAQDFVQWLMDT-NH2 [AIB2, AIB16, A18, D28, Lys10 γE-C16 (SEQ ID NO: 656)]
4
